Test Target: T1, human IGF2^1-67 (mature insulin-like growth factor 2) (human, UniProt P01344 25-91, biotinylated (site not stated) where immobilised on the chip (Tables 1-4))
T1 construct: mature; also called mature IGF2; biotinylated IGF2
T1 sequence (P01344 25-91): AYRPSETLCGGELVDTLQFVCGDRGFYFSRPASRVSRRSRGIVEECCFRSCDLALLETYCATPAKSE
Experimental Details: SPR kinetic, biotin-IGF2 on chip, pH 7.4
For each record, write down the corresponding pKd.
pKd is defined as minus the log10 of a concentration measured in mol/L.

Req: Recorded pKd for domain 11^AB3 Q1569R P1597H (receptor, See m5) MKSNEHDDCQVTNPSTGHLFDLSSLSGRAGFTAAYSKSGVVYMSICGENENCPPGVGACFGRTRISVGKANKRLRYVDQVLQLVYKDGSHCPSKSGLSYKSVISFVCRPEAGPTNRPMLISLDKQTCTLFFSWHTPLACEQATECSV , please?
Resp: 9.05

Req: Recorded pKd for domain 11^AB5 Q1569R P1597K S1602H (receptor, See m5) MKSNEHDDCQVTNPSTGHLFDLSSLSGRAGFTAAYAKGWGVYMSICGENENCPPGVGACFGRTRISVGKANKRLRYVDQVLQLVYKDGSKCPSKHGLSYKSVISFVCRPEAGPTNRPMLISLDKQTCTLFFSWHTPLACEQATECSV , please?
Resp: 9.04

Req: Recorded pKd for domain 11^AB3 P1597H (receptor, See m5; also called AB3 + 62B (FG-P1597H)) MKSNEHDDCQVTNPSTGHLFDLSSLSGRAGFTAAYSKSGVVYMSICGENENCPPGVGACFGQTRISVGKANKRLRYVDQVLQLVYKDGSHCPSKSGLSYKSVISFVCRPEAGPTNRPMLISLDKQTCTLFFSWHTPLACEQATECSV , please?
Resp: 8.91

Req: Recorded pKd for domain 11^AB3 Q1569R P1597H S1602H G1603K (receptor, See m5) MKSNEHDDCQVTNPSTGHLFDLSSLSGRAGFTAAYSKSGVVYMSICGENENCPPGVGACFGRTRISVGKANKRLRYVDQVLQLVYKDGSHCPSKHKLSYKSVISFVCRPEAGPTNRPMLISLDKQTCTLFFSWHTPLACEQATECSV , please?
Resp: 9.21
